Measured values drawn from the supplement of paper PMC6555819 for this set.

test system: PPARg:RXRa 30nM:10nM, anti-RXR (NR concentration 30 nM, RXRa partner concentration 10 nM); test: PBM binding z-score (relative to random genomic background probes); higher = stronger binding; sequences stand for … in GC…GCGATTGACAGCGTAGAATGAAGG

[
  {
    "Residue Codes": "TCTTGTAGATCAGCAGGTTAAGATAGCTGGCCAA",
    "PBM binding z-score": 2.71
  },
  {
    "Residue Codes": "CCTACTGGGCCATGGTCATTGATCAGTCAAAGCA",
    "PBM binding z-score": -0.281
  },
  {
    "Residue Codes": "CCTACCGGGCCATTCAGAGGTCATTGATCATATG",
    "PBM binding z-score": 0.311
  },
  {
    "Residue Codes": "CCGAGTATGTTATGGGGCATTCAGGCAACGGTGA",
    "PBM binding z-score": 0.316
  },
  {
    "Residue Codes": "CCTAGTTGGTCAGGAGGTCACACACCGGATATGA",
    "PBM binding z-score": 1.75
  },
  {
    "Residue Codes": "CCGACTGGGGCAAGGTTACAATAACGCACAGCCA",
    "PBM binding z-score": 1.2
  },
  {
    "Residue Codes": "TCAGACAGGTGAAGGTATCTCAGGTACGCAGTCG",
    "PBM binding z-score": 3.93
  },
  {
    "Residue Codes": "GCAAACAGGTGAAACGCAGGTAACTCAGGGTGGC",
    "PBM binding z-score": -0.786
  },
  {
    "Residue Codes": "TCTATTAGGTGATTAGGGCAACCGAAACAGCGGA",
    "PBM binding z-score": 3.56
  },
  {
    "Residue Codes": "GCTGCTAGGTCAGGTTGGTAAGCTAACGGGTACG",
    "PBM binding z-score": -0.218
  },
  {
    "Residue Codes": "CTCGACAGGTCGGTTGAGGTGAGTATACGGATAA",
    "PBM binding z-score": -0.356
  },
  {
    "Residue Codes": "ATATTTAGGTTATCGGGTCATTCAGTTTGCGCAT",
    "PBM binding z-score": 3
  }
]

* * *

// PBM binding z-score lookup, one value per entry
tested on: VDR homodimer (NR concentration 270 nM); test: PBM binding z-score (relative to random genomic background probes); higher = stronger binding; sequences stand for … in GC…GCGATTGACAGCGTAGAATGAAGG
Measurement Label: PBM binding z-score

[
  {
    "Residue Codes": "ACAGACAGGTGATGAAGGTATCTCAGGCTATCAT",
    "Study Target": "VDR homodimer (NR concentration 270 nM)",
    "Result Number": -0.586
  },
  {
    "Residue Codes": "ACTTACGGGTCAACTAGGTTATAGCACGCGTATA",
    "Study Target": "VDR homodimer (NR concentration 270 nM)",
    "Result Number": 2.03
  },
  {
    "Residue Codes": "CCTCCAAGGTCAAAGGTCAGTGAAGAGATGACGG",
    "Study Target": "VDR homodimer (NR concentration 270 nM)",
    "Result Number": 3.92
  },
  {
    "Residue Codes": "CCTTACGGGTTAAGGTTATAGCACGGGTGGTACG",
    "Study Target": "VDR homodimer (NR concentration 270 nM)",
    "Result Number": 0.766
  },
  {
    "Residue Codes": "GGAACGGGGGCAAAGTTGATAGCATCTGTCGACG",
    "Study Target": "VDR homodimer (NR concentration 270 nM)",
    "Result Number": 3.49
  },
  {
    "Residue Codes": "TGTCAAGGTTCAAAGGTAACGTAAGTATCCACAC",
    "Study Target": "VDR homodimer (NR concentration 270 nM)",
    "Result Number": 4.49
  },
  {
    "Residue Codes": "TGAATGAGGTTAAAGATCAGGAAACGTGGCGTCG",
    "Study Target": "VDR homodimer (NR concentration 270 nM)",
    "Result Number": 0.62
  },
  {
    "Residue Codes": "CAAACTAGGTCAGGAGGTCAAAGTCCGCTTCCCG",
    "Study Target": "VDR homodimer (NR concentration 270 nM)",
    "Result Number": 3.61
  },
  {
    "Residue Codes": "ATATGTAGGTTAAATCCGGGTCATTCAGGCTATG",
    "Study Target": "VDR homodimer (NR concentration 270 nM)",
    "Result Number": 2.5
  },
  {
    "Residue Codes": "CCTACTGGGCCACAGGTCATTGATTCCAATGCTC",
    "Study Target": "VDR homodimer (NR concentration 270 nM)",
    "Result Number": 1.13
  },
  {
    "Residue Codes": "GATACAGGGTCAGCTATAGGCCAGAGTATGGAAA",
    "Study Target": "VDR homodimer (NR concentration 270 nM)",
    "Result Number": 0.536
  },
  {
    "Residue Codes": "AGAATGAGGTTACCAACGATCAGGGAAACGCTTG",
    "Study Target": "VDR homodimer (NR concentration 270 nM)",
    "Result Number": 0.331
  },
  {
    "Residue Codes": "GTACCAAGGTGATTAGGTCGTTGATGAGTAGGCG",
    "Study Target": "VDR homodimer (NR concentration 270 nM)",
    "Result Number": 0.631
  },
  {
    "Residue Codes": "CCTACTGGGCCGAAGGTCATTGATTCCAATGCTC",
    "Study Target": "VDR homodimer (NR concentration 270 nM)",
    "Result Number": 1.46
  },
  {
    "Residue Codes": "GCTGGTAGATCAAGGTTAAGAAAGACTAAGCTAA",
    "Study Target": "VDR homodimer (NR concentration 270 nM)",
    "Result Number": -0.133
  },
  {
    "Residue Codes": "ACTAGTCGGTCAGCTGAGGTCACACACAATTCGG",
    "Study Target": "VDR homodimer (NR concentration 270 nM)",
    "Result Number": 3.97
  },
  {
    "Residue Codes": "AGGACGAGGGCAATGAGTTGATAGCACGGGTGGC",
    "Study Target": "VDR homodimer (NR concentration 270 nM)",
    "Result Number": 3.41
  },
  {
    "Residue Codes": "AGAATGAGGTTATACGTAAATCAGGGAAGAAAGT",
    "Study Target": "VDR homodimer (NR concentration 270 nM)",
    "Result Number": 0.824
  },
  {
    "Residue Codes": "GCGACTGGGGCAGAGCAGGTTACCATAAGGTTGG",
    "Study Target": "VDR homodimer (NR concentration 270 nM)",
    "Result Number": -0.654
  },
  {
    "Residue Codes": "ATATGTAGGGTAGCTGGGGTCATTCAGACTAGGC",
    "Study Target": "VDR homodimer (NR concentration 270 nM)",
    "Result Number": 4.92
  },
  {
    "Residue Codes": "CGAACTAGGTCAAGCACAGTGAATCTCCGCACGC",
    "Study Target": "VDR homodimer (NR concentration 270 nM)",
    "Result Number": 0.357
  },
  {
    "Residue Codes": "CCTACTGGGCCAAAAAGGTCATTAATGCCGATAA",
    "Study Target": "VDR homodimer (NR concentration 270 nM)",
    "Result Number": 2.2
  },
  {
    "Residue Codes": "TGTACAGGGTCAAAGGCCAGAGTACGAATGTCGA",
    "Study Target": "VDR homodimer (NR concentration 270 nM)",
    "Result Number": 2.65
  },
  {
    "Residue Codes": "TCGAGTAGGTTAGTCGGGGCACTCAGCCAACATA",
    "Study Target": "VDR homodimer (NR concentration 270 nM)",
    "Result Number": 0.195
  },
  {
    "Residue Codes": "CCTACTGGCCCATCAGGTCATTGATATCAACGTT",
    "Study Target": "VDR homodimer (NR concentration 270 nM)",
    "Result Number": 1.9
  },
  {
    "Residue Codes": "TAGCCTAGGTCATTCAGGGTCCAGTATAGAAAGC",
    "Study Target": "VDR homodimer (NR concentration 270 nM)",
    "Result Number": 2.74
  }
]

* * *

tested on: RARb homodimer (NR concentration 270 nM); assay: PBM binding z-score (relative to random genomic background probes); higher = stronger binding; sequences stand for … in GC…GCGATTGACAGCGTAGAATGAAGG
Response field class: enum, chosen by comparing PBM binding z-score against lower bin: < 1; middle bin: ≥ 1 and < 2; upper bin: ≥ 2

[
  {
    "Residue Codes": "ACTCGGAGGAAAAAGGTCAGAGCTACGCCAGTGA",
    "Assigned Category": "upper bin"
  },
  {
    "Residue Codes": "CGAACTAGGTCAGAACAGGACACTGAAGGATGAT",
    "Assigned Category": "upper bin"
  },
  {
    "Residue Codes": "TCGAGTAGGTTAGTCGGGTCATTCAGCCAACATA",
    "Assigned Category": "upper bin"
  },
  {
    "Residue Codes": "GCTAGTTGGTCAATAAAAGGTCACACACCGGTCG",
    "Assigned Category": "upper bin"
  },
  {
    "Residue Codes": "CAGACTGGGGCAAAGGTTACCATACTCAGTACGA",
    "Assigned Category": "upper bin"
  },
  {
    "Residue Codes": "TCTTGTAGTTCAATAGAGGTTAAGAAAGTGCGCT",
    "Assigned Category": "upper bin"
  },
  {
    "Residue Codes": "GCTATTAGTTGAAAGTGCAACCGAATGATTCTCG",
    "Assigned Category": "lower bin"
  },
  {
    "Residue Codes": "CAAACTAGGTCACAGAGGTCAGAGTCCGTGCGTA",
    "Assigned Category": "upper bin"
  },
  {
    "Residue Codes": "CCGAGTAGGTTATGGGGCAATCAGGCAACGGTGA",
    "Assigned Category": "middle bin"
  },
  {
    "Residue Codes": "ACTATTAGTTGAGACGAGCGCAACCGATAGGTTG",
    "Assigned Category": "lower bin"
  },
  {
    "Residue Codes": "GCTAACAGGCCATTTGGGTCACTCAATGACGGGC",
    "Assigned Category": "upper bin"
  },
  {
    "Residue Codes": "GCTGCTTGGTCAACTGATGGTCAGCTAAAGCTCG",
    "Assigned Category": "lower bin"
  },
  {
    "Residue Codes": "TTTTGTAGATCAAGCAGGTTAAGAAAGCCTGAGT",
    "Assigned Category": "lower bin"
  },
  {
    "Residue Codes": "ATCGCAAGGTCGAGGTGAGTATAGAGAAAGGGAA",
    "Assigned Category": "middle bin"
  },
  {
    "Residue Codes": "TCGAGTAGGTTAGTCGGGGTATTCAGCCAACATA",
    "Assigned Category": "lower bin"
  },
  {
    "Residue Codes": "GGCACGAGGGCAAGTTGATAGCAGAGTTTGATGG",
    "Assigned Category": "middle bin"
  },
  {
    "Residue Codes": "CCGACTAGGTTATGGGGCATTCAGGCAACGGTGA",
    "Assigned Category": "middle bin"
  },
  {
    "Residue Codes": "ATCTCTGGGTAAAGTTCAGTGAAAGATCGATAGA",
    "Assigned Category": "upper bin"
  },
  {
    "Residue Codes": "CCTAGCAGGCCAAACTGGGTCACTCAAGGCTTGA",
    "Assigned Category": "upper bin"
  },
  {
    "Residue Codes": "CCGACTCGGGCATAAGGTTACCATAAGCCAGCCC",
    "Assigned Category": "middle bin"
  },
  {
    "Residue Codes": "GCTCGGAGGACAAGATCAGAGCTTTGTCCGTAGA",
    "Assigned Category": "lower bin"
  },
  {
    "Residue Codes": "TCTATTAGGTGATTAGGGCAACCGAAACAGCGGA",
    "Assigned Category": "middle bin"
  },
  {
    "Residue Codes": "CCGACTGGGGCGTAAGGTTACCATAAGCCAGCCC",
    "Assigned Category": "middle bin"
  },
  {
    "Residue Codes": "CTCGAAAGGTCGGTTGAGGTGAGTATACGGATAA",
    "Assigned Category": "upper bin"
  },
  {
    "Residue Codes": "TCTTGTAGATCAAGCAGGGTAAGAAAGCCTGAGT",
    "Assigned Category": "lower bin"
  }
]
